target_entity: CDK6 CCND3 (human) (UniProt P30281+Q00534)
Sequence (P30281 whole entry, looked up): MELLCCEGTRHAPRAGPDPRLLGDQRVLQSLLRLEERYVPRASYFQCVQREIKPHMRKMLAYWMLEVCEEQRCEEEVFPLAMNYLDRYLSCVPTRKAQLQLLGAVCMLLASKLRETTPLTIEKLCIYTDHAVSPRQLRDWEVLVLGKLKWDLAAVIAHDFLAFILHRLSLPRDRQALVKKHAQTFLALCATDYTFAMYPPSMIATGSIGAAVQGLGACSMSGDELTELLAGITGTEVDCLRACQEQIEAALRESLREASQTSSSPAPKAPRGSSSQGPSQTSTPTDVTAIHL
Sequence (Q00534 whole entry, looked up): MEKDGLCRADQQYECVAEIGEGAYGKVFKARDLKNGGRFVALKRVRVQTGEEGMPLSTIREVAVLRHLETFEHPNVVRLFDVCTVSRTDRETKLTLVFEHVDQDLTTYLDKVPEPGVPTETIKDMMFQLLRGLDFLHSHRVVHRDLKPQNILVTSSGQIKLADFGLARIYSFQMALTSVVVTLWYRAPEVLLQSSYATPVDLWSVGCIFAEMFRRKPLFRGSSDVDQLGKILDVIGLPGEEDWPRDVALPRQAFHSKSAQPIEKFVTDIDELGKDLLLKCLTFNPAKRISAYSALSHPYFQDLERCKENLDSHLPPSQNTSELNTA
method_description: radiometric filter-binding kinase assay, Kinase HotSpot
study_conditions: compound 0.5 µM; ATP 10 µM
result_type: residual activity (%)
Could you give me the number in %? Just the number is fine.

Consider the molecule C[C@@H]1CCN(C(=O)CC#N)C[C@@H]1N(C)c1ncnc2[nH]ccc12 and give its measured residual activity.
110

Follow-up entry: O=C1NC(=O)c2c1c1c3ccccc3[nH]c1n1cncc21
74.3

Follow-up entry: N#Cc1c[nH]c2c[nH]/c(=N\Cc3cccnc3)cc2/c1=N\c1ccc(F)c(Cl)c1
88.8

Follow-up entry: NCCNc1ncc(C(N)=O)c(Nc2cccc(C(F)(F)F)c2)n1
100

Follow-up entry: CN(C)S(=O)(=O)c1ccc2c(c1)/C(=C/c1cc3c([nH]1)CCCC3)C(=O)N2
84.2

====

Record form. Attribute: residual activity. Fill in for each entry.
target_entity: PRKG2 (human) (UniProt Q13237)
Sequence (Q13237 whole entry, looked up): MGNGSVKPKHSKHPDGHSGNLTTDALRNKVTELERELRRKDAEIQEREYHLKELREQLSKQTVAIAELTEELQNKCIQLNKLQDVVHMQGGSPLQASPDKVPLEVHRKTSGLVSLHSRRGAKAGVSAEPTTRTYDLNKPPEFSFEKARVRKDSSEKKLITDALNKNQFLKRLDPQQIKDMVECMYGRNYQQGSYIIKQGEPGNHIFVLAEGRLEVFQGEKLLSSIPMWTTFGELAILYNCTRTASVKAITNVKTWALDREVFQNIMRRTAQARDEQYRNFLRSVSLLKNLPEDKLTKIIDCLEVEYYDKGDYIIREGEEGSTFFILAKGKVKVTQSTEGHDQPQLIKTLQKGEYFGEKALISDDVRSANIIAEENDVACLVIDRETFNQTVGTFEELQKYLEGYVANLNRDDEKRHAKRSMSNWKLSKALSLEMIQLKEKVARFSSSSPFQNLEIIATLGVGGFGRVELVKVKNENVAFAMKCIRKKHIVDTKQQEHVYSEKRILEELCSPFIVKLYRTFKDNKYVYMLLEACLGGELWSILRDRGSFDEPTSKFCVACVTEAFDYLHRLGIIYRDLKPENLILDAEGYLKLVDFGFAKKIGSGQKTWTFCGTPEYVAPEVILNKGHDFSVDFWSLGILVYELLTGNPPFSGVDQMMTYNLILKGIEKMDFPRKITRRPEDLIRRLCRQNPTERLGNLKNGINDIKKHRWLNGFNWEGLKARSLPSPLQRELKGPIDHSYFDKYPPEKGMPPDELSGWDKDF
method_description: radiometric filter-binding kinase assay, Kinase HotSpot
study_conditions: compound 0.5 µM; ATP 10 µM
Could you give me the number in %? Just the number is fine.

Consider the molecule Cc1cncc2cccc(S(=O)(=O)N3CCCN(C(=O)CN)C[C@H]3C)c12 and give its measured residual activity.
88.1

Follow-up entry: CC(C)(C)c1cc(C=C(C#N)C#N)cc(Br)c1O
87.6

Follow-up entry: O=C1Nc2ccc(Br)cc2/C1=C\c1cc2c([nH]1)CCCC2
92.4

Follow-up entry: N#Cc1c[nH]c2c[nH]/c(=N\Cc3cccnc3)cc2/c1=N\c1ccc(F)c(Cl)c1
90.9

====

target_entity: CSNK1D (human) (UniProt P48730)
Sequence (P48730 whole entry, looked up): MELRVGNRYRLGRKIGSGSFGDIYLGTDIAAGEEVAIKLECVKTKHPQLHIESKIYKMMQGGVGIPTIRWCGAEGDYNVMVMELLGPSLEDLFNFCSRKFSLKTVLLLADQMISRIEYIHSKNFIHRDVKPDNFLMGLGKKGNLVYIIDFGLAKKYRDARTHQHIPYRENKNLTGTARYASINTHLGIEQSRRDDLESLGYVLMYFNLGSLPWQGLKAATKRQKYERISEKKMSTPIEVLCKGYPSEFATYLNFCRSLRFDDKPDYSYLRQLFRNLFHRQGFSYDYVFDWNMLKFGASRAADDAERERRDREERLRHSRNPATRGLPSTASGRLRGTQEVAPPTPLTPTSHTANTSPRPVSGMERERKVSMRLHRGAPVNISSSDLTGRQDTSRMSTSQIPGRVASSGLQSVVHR
method_description: radiometric filter-binding kinase assay, Kinase HotSpot
study_conditions: compound 0.5 µM; ATP 10 µM
result_type: residual activity (%)
Could you give me the number in %? Just the number is fine.

Consider the molecule COc1cc(Nc2c(C#N)cnc3cc(OCCCN4CCN(C)CC4)c(OC)cc23)c(Cl)cc1Cl and give its measured residual activity.
10.9

Follow-up entry: O=C1c2ccccc2-c2nc3nnnn3nc21
86.8

Follow-up entry: CC(C)(C)c1cc(C=C(C#N)C#N)cc(Br)c1O
85.5

====

target_entity: NTRK3 (human) (UniProt Q16288)
Sequence (Q16288 whole entry, looked up): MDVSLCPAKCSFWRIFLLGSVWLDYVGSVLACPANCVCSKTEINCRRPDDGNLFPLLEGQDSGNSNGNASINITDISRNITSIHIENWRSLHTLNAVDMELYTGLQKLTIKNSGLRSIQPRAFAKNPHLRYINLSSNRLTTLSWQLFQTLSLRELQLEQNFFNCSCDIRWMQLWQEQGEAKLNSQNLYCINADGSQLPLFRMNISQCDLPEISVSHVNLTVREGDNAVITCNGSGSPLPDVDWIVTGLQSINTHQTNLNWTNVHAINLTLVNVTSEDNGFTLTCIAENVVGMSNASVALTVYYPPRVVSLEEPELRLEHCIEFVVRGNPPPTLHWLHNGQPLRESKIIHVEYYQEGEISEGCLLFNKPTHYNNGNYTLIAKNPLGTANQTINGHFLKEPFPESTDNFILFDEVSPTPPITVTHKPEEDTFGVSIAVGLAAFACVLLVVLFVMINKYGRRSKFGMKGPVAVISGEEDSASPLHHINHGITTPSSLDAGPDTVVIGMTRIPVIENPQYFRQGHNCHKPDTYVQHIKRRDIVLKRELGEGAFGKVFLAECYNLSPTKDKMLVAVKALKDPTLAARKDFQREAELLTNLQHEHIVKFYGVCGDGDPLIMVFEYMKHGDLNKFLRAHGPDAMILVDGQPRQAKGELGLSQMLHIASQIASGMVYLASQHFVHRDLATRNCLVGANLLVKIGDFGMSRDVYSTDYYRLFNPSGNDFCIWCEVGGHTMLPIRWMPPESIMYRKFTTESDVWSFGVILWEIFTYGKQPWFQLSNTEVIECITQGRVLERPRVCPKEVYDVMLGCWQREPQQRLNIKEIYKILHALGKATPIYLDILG
method_description: radiometric filter-binding kinase assay, Kinase HotSpot
study_conditions: compound 0.5 µM; ATP 10 µM
Record form. Attribute: residual activity. Fill in for each entry.
Could you give me the number in %? Just the number is fine.

Consider the compound C[C@@H]1CCN(C(=O)CC#N)C[C@@H]1N(C)c1ncnc2[nH]ccc12 and give its measured residual activity.
90

Follow-up entry: Cc1cccc(-c2nc(C(C)(C)C)[nH]c2-c2ccc3c(c2)OCO3)n1
92.4

Follow-up entry: COc1ccc2c(c1)c(C1=C(c3c[nH]c4ccccc34)C(=O)NC1=O)cn2CCCN(C)C
54.9

Follow-up entry: N#C/C(=C\c1ccc(O)c(O)c1)C(=O)NCc1ccccc1
98.8

Follow-up entry: N#Cc1c[nH]c2c[nH]/c(=N\Cc3cccnc3)cc2/c1=N\c1ccc(F)c(Cl)c1
93.2

Follow-up entry: CC(C)(C)c1cc(C=C(C#N)C#N)cc(Br)c1O
104

Follow-up entry: Ic1cccc(CSc2nnc(-c3ccncc3)o2)c1
104

Follow-up entry: O=C1C(Cl)=C(N2C(=O)CCC2=O)C(=O)c2ccccc21
98.6

Follow-up entry: COc1ccc(C(=O)Nc2sc3c(c2C(N)=O)CCCC3)cc1OC
57.7

Follow-up entry: CCCCc1c(-c2ccc(OC)cc2)[nH]c2nccnc12
84.4

Follow-up entry: CN(C)CCCn1cc(C2=C(c3c[nH]c4ccccc34)C(=O)NC2=O)c2ccccc21
20.2

Follow-up entry: COc1cc2ncnc(Nc3ccc(Oc4ccccc4)cc3)c2cc1OC
99.7

Follow-up entry: Cn1c2ccccc2c2c3c(c4c5ccccc5n(CCC#N)c4c21)CNC3=O
0.198

Follow-up entry: Fc1ccc(-c2nc3n(c2-c2ccncc2)CCS3)cc1
105

Follow-up entry: COc1ccc(S(=O)(=O)N(CCO)c2ccccc2CN(C)C/C=C/c2ccc(Cl)cc2)cc1
95.3

Follow-up entry: Cc1cncc2cccc(S(=O)(=O)N3CCCN(C(=O)CN)C[C@H]3C)c12
87.5

Follow-up entry: COc1cc2ncnc(Nc3ccc(OCc4ccccc4)cc3)c2cc1OC
93.8

Follow-up entry: CN(C)S(=O)(=O)c1ccc2c(c1)/C(=C/c1cc3c([nH]1)CCCC3)C(=O)N2
2.88

Follow-up entry: c1ccc2c(-c3ccncc3)c[nH]c2c1
100
